- SYSTEM: T1, cytochrome b562 with C-terminally fused Strep-tagII (E. coli)
- T1 construct: also called Cytb562-StrepII; Cytb562-StrepIII
- ASSAY DETAILS: affinity chromatography, overloaded Sepharose column, washed, biotin elution
Returns 1 if the recorded Retained Cytb562-StrepII per immobilized mutein is greater than or equal to 0.3 µg/µg, and 0 otherwise.

| BINDER | LABEL VALUE |
| --- | --- |
| mutein“1”-m45 (designed binder, Library 3 clone on mutein “1”) EAGITGTWYNQLGSTFIVTAGADGALTGTYVTARGNAESRYVLTGRYDSAPATDGSGTALGWTVAWKNNYRNAHSATTWSGQYVGGAEARINTQWLLTSGTTEYNAGFSTLVGHDTFTKVKPSAAS | 1 |
| mutein“1”-m302 (designed binder, Library 7 clone on mutein “1”, 118 and 119 deleted) EAGITGTWYNQLGSTFIVTAGADGALTGTYVTARGNAESRYVLTGRYDSAPATDGSGTALGWTVAWKNNYRNAHSATTWSGQYVGGAEARINTQWLLTSGTTEHWYSTLVGHDTFTKVKPSAAS | 0 |
| mutein“1”-m111 (designed binder, Library 5 clone on mutein “1”) EAGITGTWYNQLGSTFIVTAGADGALTGTYVTARGNAESRYVLTGRYDSAPATDGSGTALGWTVAWKNNYRNAHSATTWSGQYVGGAEARINTQWLLTSGTTEYNALWSTLVGHDTFTKVKPSAAS | 1 |
| mutein m402 (designed binder, Library 1 clone) EAGITGTWYNQLGSTFIVTAGADGALTGTYACARGNAECRYVLTGRYDSAPATDGSGTALGWTVAWKNNYRNAHSATTWSGQYVGGAEARINTQWLLTSGTTEANAWKSTLVGHDTFTKVKPSAAS | 0 |
| mutein“1”-m36 (designed binder, Library 3 clone on mutein “1”) EAGITGTWYNQLGSTFIVTAGADGALTGTYVTARGNAESRYVLTGRYDSAPATDGSGTALGWTVAWKNNYRNAHSATTWSGQYVGGAEARINTQWLLTSGTTEYNAFMSTLVGHDTFTKVKPSAAS | 1 |

Textbook exercise: given the entry mutein“1”-m207 (designed binder, Library 6 clone on mutein “1”, 118 and 119 deleted) EAGITGTWYNQLGSTFIVTAGADGALTGTYVTARGNAESRYVLTGRYDSAPATDGSGTALGWTVAWKNNYRNAHSATTWSGQYVGGAEARINTQWLLTSGTTETWLSTLVGHDTFTKVKPSAAS , state whether its Retained Cytb562-StrepII per immobilized mutein is greater than or equal to 0.3 µg/µg.
0

Textbook exercise: given the entry mutein“1”-m23 (designed binder, Library 3 clone on mutein “1”) EAGITGTWYNQLGSTFIVTAGADGALTGTYVTARGNAESRYVLTGRYDSAPATDGSGTALGWTVAWKNNYRNAHSATTWSGQYVGGAEARINTQWLLTSGTTEYNAYASTLVGHDTFTKVKPSAAS , state whether its Retained Cytb562-StrepII per immobilized mutein is greater than or equal to 0.3 µg/µg.
1

Textbook exercise: given the entry mutein“1”-m212 (designed binder, Library 6 clone on mutein “1”, 118 and 119 deleted) EAGITGTWYNQLGSTFIVTAGADGALTGTYVTARGNAESRYVLTGRYDSAPATDGSGTALGWTVAWKNNYRNAHSATTWSGQYVGGAEARINTQWLLTSGTTEHWLSTLVGHDTFTKVKPSAAS , state whether its Retained Cytb562-StrepII per immobilized mutein is greater than or equal to 0.3 µg/µg.
0

Textbook exercise: given the entry mutein m4001 (designed binder, Library 2 clone) EAGITGTWYNQLGSTFIVTAGADGALTGTYACGRGNAECRYVLTGRYDSAPATDGSGTALGWTVAWKNNYRNAHSATTWSGQYVGGAEARINTQWLLTSGTTEANAWKSTLVGHDTFTKVKPSAAS , state whether its Retained Cytb562-StrepII per immobilized mutein is greater than or equal to 0.3 µg/µg.
0

Textbook exercise: given the entry mutein“1”-m4 (designed binder, Library 3 clone on mutein “1”) EAGITGTWYNQLGSTFIVTAGADGALTGTYVTARGNAESRYVLTGRYDSAPATDGSGTALGWTVAWKNNYRNAHSATTWSGQYVGGAEARINTQWLLTSGTTEDNAGFSTLVGHDTFTKVKPSAAS , state whether its Retained Cytb562-StrepII per immobilized mutein is greater than or equal to 0.3 µg/µg.
1
